test system: normal human plasma; assay: Prothrombin times (PT), blood coagulation in vitro; type: biochemical; conditions: inhibitor 1000 nM

[
  {
    "Compound": "CC(C)(C)OC(=O)NC(Cc1ccccc1)C(=O)N1CCCC1C(=O)NC(CCCN=C(N)N)B1OC2CC3CC(C3(C)C)C2(C)O1.O=S(=O)(O)c1ccccc1 (stereo not shown)",
    "Prothrombin Times": "> 200 s"
  },
  {
    "Compound": "Br.CC(C)(C)OC(=O)NC(Cc1ccccc1)C(=O)N1CCCC1C(=O)NC(CCCSC(=N)N)B1OC2CC3CC(C3(C)C)C2(C)O1 (stereo not shown)",
    "Prothrombin Times": "152.7 s"
  },
  {
    "Compound": "Br.CC(C)(C)OC(=O)NC(Cc1ccccc1)C(=O)NC(Cc1ccccc1)C(=O)NC(CCCSC(=N)N)B1OC2CC3CC(C3(C)C)C2(C)O1 (stereo not shown)",
    "Prothrombin Times": "19.9 s"
  },
  {
    "Compound": "CC(C)(C)OC(=O)N[C@H](Cc1ccccc1)C(=O)N[C@@H](Cc1ccccc1)C(=O)N[C@@H](CCCNC(=N)N)B1OC2CC3CC(C3(C)C)C2(C)O1.O=S(=O)(O)c1ccccc1 (stereo partly shown)",
    "Prothrombin Times": "29.3 s"
  },
  {
    "Compound": "CC1(C)C2CC3OB(C(CCCN=C(N)N)NC(=O)C4CCCN4C(=O)C(N)Cc4ccccc4)OC3(C)C1C2.Cl.Cl (stereo not drawn) [B, H-(D)Phe-Pro-boroArg-C10 H16.2HCl]",
    "Prothrombin Times": "> 250 s"
  },
  {
    "Compound": "CC(=O)NC(Cc1ccccc1)C(=O)NC(CCCNC(=N)N)B1OC2CC3CC(C3(C)C)C2(C)O1.Cl (stereo not shown) [Compound F, Ac-Phe-boroArg-C10 H16.HCl]",
    "Prothrombin Times": "16.2 s"
  },
  {
    "Compound": "Br.CC(=O)NC(Cc1ccccc1)C(=O)NC(CCCSC(=N)N)B1OC2CC3CC(C3(C)C)C2(C)O1 (stereo not shown)",
    "Prothrombin Times": "19.7 s"
  }
]

====

test: Stability of Inhibitors in Human Plasma As Measured By APTT; format: in vitro ADME; details: incubation in human plasma 24 h; 250 nM in APTT assay
Clotting Time values, listed per item
Assay metric: Clotting Time (s)

[
  {
    "Compound": "CC(C)(C)OC(=O)NC(Cc1ccccc1)C(=O)N1CCCC1C(=O)NC(CCCN=C(N)N)B1OC2CC3CC(C3(C)C)C2(C)O1.O=S(=O)(O)c1ccccc1 (centres unmarked)",
    "Assay metric": "Clotting Time",
    "Measured number": 92.2
  },
  {
    "Compound": "CC1(C)C2CC3OB(C(CCCN=C(N)N)NC(=O)C4CCCN4C(=O)C(N)Cc4ccccc4)OC3(C)C1C2.Cl.Cl (stereo not drawn) [B, H-(D)Phe-Pro-boroArg-C10 H16.2HCl]",
    "Assay metric": "Clotting Time",
    "Measured number": 109.3
  },
  {
    "Compound": "CC(=O)NC(Cc1ccccc1)C(=O)NC(CCCNC(=N)N)B1OC2CC3CC(C3(C)C)C2(C)O1.Cl (centres unmarked) [Compound F, Ac-Phe-boroArg-C10 H16.HCl]",
    "Assay metric": "Clotting Time",
    "Measured number": 73.9
  },
  {
    "Compound": "CC(C)(C)OC(=O)N[C@H](Cc1ccccc1)C(=O)N[C@@H](Cc1ccccc1)C(=O)N[C@@H](CCCNC(=N)N)B1OC2CC3CC(C3(C)C)C2(C)O1.O=S(=O)(O)c1ccccc1 (some centres unmarked)",
    "Assay metric": "Clotting Time",
    "Measured number": 64.7
  },
  {
    "Compound": "Br.CC(C)(C)OC(=O)NC(Cc1ccccc1)C(=O)N1CCCC1C(=O)NC(CCCSC(=N)N)B1OC2CC3CC(C3(C)C)C2(C)O1 (centres unmarked)",
    "Assay metric": "Clotting Time",
    "Measured number": 248.7
  }
]

Values compiled from patent US5187157A.
